Values compiled from patent EP4603105A1.

Measured pKd values are reported for all entries that follow.
Molecular target: GDP-bound KRAS wild-type protein (Homo sapiens)
Assay: Binding to KRAS by surface plasmon resonance (SPR), dissociation constant KD
Conditions: Single Cycle Kinetics, 1:1 binding model
Scale: negative log10 of molar concentration, which is what pKd denotes.

In the examples that follow, each entry is paired with its recorded pKd.
>  <structure-notation>
CCC[C@H]1C(=O)N[C@@H]([C@@H](C)CC)C(=O)N(CCC)CC(=O)N(C)[C@H]2C/C=C\CCN(C2=O)[C@@H](Cc2ccc(C)cc2)C(=O)N(C)CC(=O)N[C@@H](CCc2ccc(C(F)(F)F)c(OC)c2)C(=O)N2C[C@H](OCC)C[C@H]2C(=O)NC2(CC(C)(C)C2)C(=O)N(C)[C@@H](C2CCCC2)C(=O)N(C)[C@H](C(=O)N(C)C)CC(=O)N1C

>  <pKd>
9.39

$$$$
>  <structure-notation>
CC[C@H](C)[C@@H]1NC(=O)[C@H](CC(C)C)N(C)C(=O)C[C@@H](C(=O)N2CCOCC2)N(C)C(=O)[C@H](C2CCCC2)N(C)C(=O)C2(CCC2)NC(=O)[C@@H]2CCCN2C(=O)[C@H](CCc2cc(F)c(C(F)(F)F)c(F)c2)NC(=O)CN(C)C(=O)[C@H](Cc2ccc(C(F)(F)F)cc2)N2C[C@H](C)[C@H](C)C[C@@H](C2=O)N(C)C(=O)[C@@H]2CCN2C1=O

>  <pKd>
9.47

$$$$

Entry CCO[C@@H]1C[C@H]2C(=O)NC3(CCC3)C(=O)N(C)[C@@H](C3CCCC3)C(=O)N(C)[C@H](C(=O)N3CCOCC3)CC(=O)N(C)[C@@H](Cc3cccnc3)C(=O)N[C@@H]([C@@H](C)CC)C(=O)N(C)CC(=O)N(C)[C@H]3CCCCN(C3=O)[C@@H](Cc3ccc(C(F)(F)F)cc3)C(=O)N(C)CC(=O)N[C@@H](CCc3cc(F)c(C(F)(F)F)c(F)c3)C(=O)N2C1 — recorded pKd = 10.54

----------
Target: GDP-bound KRAS wild-type protein (Homo sapiens, UniProt P01116)
Sequence (P01116 1-188 isoform P01116-2): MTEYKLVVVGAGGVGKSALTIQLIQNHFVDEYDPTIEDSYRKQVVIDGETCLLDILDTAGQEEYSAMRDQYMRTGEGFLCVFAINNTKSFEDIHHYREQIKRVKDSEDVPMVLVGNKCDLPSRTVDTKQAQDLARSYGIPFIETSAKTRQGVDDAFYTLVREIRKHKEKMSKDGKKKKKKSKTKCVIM
Experiment: Binding to KRAS by surface plasmon resonance (SPR), dissociation constant KD
Settings: 1:1 binding model
reported-endpoint: pKd
pKd here: minus log base 10 of the concentration, concentration in moles per litre.

Sample answers from the record:
>  <structure-notation>
CCC[C@H]1C(=O)N[C@@H]([C@@H](C)CC)C(=O)N(C2CC2)CC(=O)N(C)[C@H]2C/C=C\CCN(C2=O)[C@@H](CC2CCC(F)(F)CC2)C(=O)N(C)CC(=O)N[C@@H](CCc2ccc(Cl)c(Cl)c2)C(=O)N2C[C@H](OCC)C[C@H]2C(=O)NC2(CC(C)(C)C2)C(=O)N(C)[C@@H](C2CCCC2)C(=O)N(C)[C@H](C(=O)N(C)C)CC(=O)N1C

>  <pKd>
8.72

$$$$
>  <structure-notation>
CCC[C@H]1C(=O)N[C@@H](CC(C)C)C(=O)N(CCOC)CC(=O)N(C)[C@H]2C/C=C\CCN(C2=O)[C@@H](Cc2ccc(C)cc2)C(=O)N(C)CC(=O)N[C@@H](CCc2ccc(C(F)(F)F)c(OC)c2)C(=O)N2C[C@H](OCC)C[C@H]2C(=O)NC2(CCC2)C(=O)N(C)[C@@H](C2CCCC2)C(=O)N(C)[C@H](C(=O)N(C)C)CC(=O)N1C

>  <pKd>
8.34

$$$$

# ---- query compound ----
Item: CCO[C@@H]1C[C@H]2C(=O)NC3(CC(C)(C)C3)C(=O)N(C)[C@@H](C3CCCC3)C(=O)N(C)[C@H](C(=O)N(C)CC)CC(=O)N(C)[C@@H]([C@@H](C)OC)C(=O)N[C@@H]([C@@H](C)CC)C(=O)N(C)CC(=O)N(C)[C@H]3C/C=C\CCN(C3=O)[C@@H](Cc3ccc(C(F)(F)F)cc3)C(=O)N(C)CC(=O)N[C@@H](CCc3ccc(C(F)(F)F)c(OC)c3)C(=O)N2C1 | pKd: 10.12
